experiment: NCI Yeast Anticancer Drug Screen. Data for the rad50 strain (AID 155);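 also: 0% = growth of vehicle-only cultures of the same strain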; details: S. cerevisiae rad50 strain growth inhibition; at 50.0 µM
Compounds without any hit were thinned out: in the full panel of roughly 79,000, 15% have a hit. Calls of active or inactive are those of the source. Rule as the data show it: active = growth inhibition above about 70%; inactive = the rest.
Just give me one of these, please: 1 (active), -1 (inactive)

Take a look at these entries with their results.
[CH3][Sn]([CH3])([Br])[CH2]CCBr | 1
CCOC(=O)CNCCC1(CC)C(=O)NC(=O)NC1=O | -1

What was the test verdict on `O=C(N/N=C/c1ccc(N(CCCl)CCCl)cc1)c1ccc(N(CCCl)CCCl)cc1` ?
-1

Name the outcome recorded for c1cc(C2N3CCCN2CC3)ccn1 (stereo unspecified) in the assay.
-1

Call for entry `COc1cc(N=Nc2ccc([N+](=O)[O-])cc2)c([OH+]C)cc1[N+]#N.COc1cc(N=Nc2ccc([N+](=O)[O-])cc2)c([OH+]C)cc1[N+]#N.[Cl][Zn][Cl]` :
-1

What outcome does the record of this test show for `CNC(=O)C(Cl)Cl` ?
-1

----------
assay: NCI Yeast Anticancer Drug Screen. Data for the cln2 rad14 strain (AID 165);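 also: 0% = growth equal to vehicle treated cultures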; conditions: S. cerevisiae cln2 rad14 strain, at 50.0 µM
The panel holds about 79,000 compounds, 15% with a hit somewhere; the sample as a whole holds those more often. The source made the active and inactive calls. Rule as the data show it: active = growth inhibition above about 70%; inactive = the rest.
Hi! Could you answer with just one of these? true (1) (active), false (0) (inactive)

O=C1C(Br)=C(N2CC2)C(=O)C(Br)=C1N1CC1 | true (1)
N#CC[CH2][Sn]([I])([c]1ccccc1)[c]1ccccc1 | true (1)

Could you check what this test reported for CC1=C(C)CN(CCc2c[nH]c3ccccc23)C(C#N)C1 (stereo not drawn) ?
false (0)

// param item: O=c1sc2ccccc2n1CC1CS1 (stereo not drawn) ; yields the recorded call
false (0)

Could you check what this test reported for `COCC(=O)CP(=O)(OC)OC` ?
false (0)

I would be grateful if you could indicate the recorded call for `O=[N+]([O-])c1cccc(P(=O)(O)O)c1` .
false (0)

Status in this test for `O=[N+]([O-])c1ccc(N2CC2)c([N+](=O)[O-])c1` ?
false (0)

Please share the test call associated with `Cc1cc(CCl)cc(=O)[nH]1` .
false (0)

GET /call?item= COc1ccc(C2=CCN(c3ccc(C)cc3)P(=O)(N(CCCl)CCCl)O2)cc1 (stereo not drawn) returns the recorded outcome of this test.
true (1)

Tell me the recorded outcome of this test for O=C(CCC1CCCCN1)Nc1ccc2c(c1)C(=O)c1ccc(NC(=O)CCN3CCCCC3)cc1C2=O (stereo not drawn) .
false (0)

Identify the outcome logged in this assay for the compound shown: O=C(O)C(O)(c1ccccc1)c1ccco1 (stereo not drawn)
false (0)

Dear all, I need the recorded test outcome for `CCN(CC)c1cccc(OC(=O)NC)c1` , thank you.
false (0)

Name the outcome recorded for `CCC1(CCNC(=O)CCl)C(=O)NC(=O)NC1=O` in the assay.
false (0)

----------
assay: NCI Yeast Anticancer Drug Screen. Data for the mlh1 rad18 strain (AID 175); conditions: S. cerevisiae mlh1 rad18 strain growth inhibition; at 50.0 µM
About 79,000 compounds went through this panel and 15% of them were active in at least one assay; those are over-represented in the sample as a whole. Calls of active or inactive are those of the source. Cut-off read from the data, not from the text of the source: active = growth inhibition above about 70%; inactive = the rest.
Hi there, use one of these labels in your reply, thanks! label 1 for active, label 0 for inactive

COc1cc2c(cc1OC)C13CCN4C=C5CCOC6CC(=O)N2C1C6C5CC43 (stereo unspecified) | label 0

Below: the item to evaluate.
Would you mind telling me which call this test gave `Oc1ccccc1I` ?
label 0
